melting point for assorted compounds

Here's what some known entries look like.
{"columns": ["compound", "attributeMeasured", "recordedResult"],
 "data": [
  ["O=C(O)c1ccc(C(=O)O)c(-c2nc3ccccc3o2)c1", "melting point", "284 °C"],
  ["O=C(O)Cc1ccc(OCCCCl)cc1", "melting point", "89 to 91 °C"],
  ["COP(=O)(OC)C(C)(C)O", "melting point", "75 to 77 °C"],
  ["COc1cc(OC)c(C(=O)Nc2cccc3c2CCN(C)C3)cc1OC", "melting point", "159 to 160 °C"],
  ["CC(C)c1ccc2ncn(/C=C/C(=O)NCCNCc3ccccn3)c(=O)c2c1", "melting point", "91 to 95 °C"]
]}

*Q* # return recorded melting point for entry COc1ccc(CC2(C)CN(C(c3ccccc3)c3ccccc3)CCN2C)cc1OC (stereo not given)
*A* 102 °C

*Q* # return recorded melting point for entry CCCc1nc2c(N)nc(C)c(C)c2n1CC(C)(C)NC(=O)c1ccccc1
*A* 208 to 210 °C

*Q* # return recorded melting point for entry C=C(C)c1ccc(CNC(=O)N2CCN(c3ncnc4cc(OC)c(OC)cc34)CC2)cc1
*A* 123 to 124 °C

*Q* # return recorded melting point for entry O=C(Oc1ccccc1)c1cc(Br)nn1-c1ncccc1Cl
*A* 65 to 67 °C

*Q* # return recorded melting point for entry c1ccc(CNc2nnc(Cc3ccncc3)c3ccccc23)cc1
*A* 137 to 138 °C

====

melting point for assorted compounds

Here's what some known entries look like.
{"columns": ["compound", "melting point"],
 "data": [
  ["Cc1ccc2sc3cc(C(=O)O)ccc3c(=O)c2c1", "> 250 °C"],
  ["CC(=O)Oc1ccccc1-c1ccc(Cl)nn1", "131 to 134 °C"],
  ["O=C(NCC12CC3CC(CC(C3)C1)C2)c1cc(-c2ccc(F)cc2C(=O)O)ccc1Cl", "126 to 128 °C"]
]}

*Q* # return recorded melting point for entry COc1cc2cc(CO)c(CO)c(-c3ccnc(N4CCC(O)c5ccccc54)c3)c2cc1OC (stereo not given)
*A* 90 to 94 °C

*Q* # return recorded melting point for entry C#Cc1cc(Cl)cc(Cl)c1
*A* 80 to 81.5 °C

====

melting point for assorted molecules

{"columns": ["molecule", "melting point"],
 "data": [
  ["COC(=O)C[C@H](O)C[C@H](O)C=Cc1c(-c2ccc(F)cc2)c(-c2ccccc2)c(C(=O)Nc2ccccc2)n1C(C)C", "154 to 155 °C"],
  ["CC12CC(=O)NN=C1c1ccc(Br)cc1C2 (stereo not given)", "242 °C"],
  ["CCCc1c(OCCOc2ccc(C(=O)O)cc2)ccc(C(C)=O)c1O", "175 to 176 °C"],
  ["COc1cnn(CN(C(=O)CCl)c2c(C)cccc2C)c1", "115 to 116 °C"]
]}

Now look at this entry.
*Q* # return recorded melting point for entry O=C(NCC12CC3CC(CC(C3)C1)C2)c1c(Cl)ccc2nc(N3CCC(C(=O)O)(c4ccccc4)CC3)ccc12
*A* 235 to 237 °C

====

melting point for assorted compounds

Here's what some known entries look like.
{"columns": ["compound", "attributeMeasured", "recordedResult"],
 "data": [
  ["CN=C(NC)Nc1ccccc1-c1ccccc1", "melting point", "101 to 102 °C"],
  ["CN(N)C(=O)NCC(F)F", "melting point", "81 to 84 °C"],
  ["COc1cc(Nc2nccc(-c3cccnc3)n2)cc(OC)c1OC", "melting point", "155 °C"],
  ["Cc1ccc(N)cc1Nc1ncc(-c2ccncc2)o1", "melting point", "158 °C"],
  ["O=C(Nc1c[nH]nc1C(=O)NCCSc1ccccc1)c1ccccn1", "melting point", "180 to 181 °C"]
]}

*Q* # return recorded melting point for entry CCCCNC(=O)n1c(=NC(F)(F)F)oc2ccc([N+](=O)[O-])cc21
*A* 121 to 122 °C

*Q* # return recorded melting point for entry COc1ccc(NCC(=O)N2CCC(Cc3ccccc3)CC2)cc1
*A* 117 to 119 °C

*Q* # return recorded melting point for entry CCOC(=O)C1CC1C(=O)O (stereo unspecified)
*A* 46 °C

====

attributeMeasured: melting point (°C)
Respond numerically; units are °C and should not be typed.

{"columns": ["molecule", "melting point, °C"],
 "data": [
  ["COC1OC(=O)CC(C)(C)C1O (stereo not given)", 72]
]}

Now look at this entry.
*Q* # return recorded melting point for entry CCCCc1ccc(-c2[nH]c(=O)n(C3CCCCC3)c2C)cc1
*A* 236

====

melting point for assorted compounds

{"columns": ["compound", "melting point"],
 "data": [
  ["O=[N+]([O-])N=C1NCCN1Cc1ccc(OCC(F)(F)F)nc1", "109 to 112 °C"]
]}

*Q* # return recorded melting point for entry Cc1cc(SC(C)C)c(NC(=O)CCCCCSc2nc3ccccc3s2)c(SC(C)C)n1
*A* 84 to 86 °C

*Q* # return recorded melting point for entry CCCCCCCc1ncc(CO)[nH]1
*A* 82 to 84 °C

*Q* # return recorded melting point for entry COc1cc(C(=O)N2CCC(CCN3CCC(Nc4nc5ccccc5n4Cc4ccc(Cl)s4)CC3)(c3ccc(F)c(F)c3)C2)cc(OC)c1OC (stereo not given)
*A* 110 to 120 °C

*Q* # return recorded melting point for entry CCC1c2cc(F)ccc2-c2ccccc2N1C(=O)c1ccc(O)cc1F (stereo not given)
*A* 109 to 111 °C

*Q* # return recorded melting point for entry CS(=O)(=O)Nc1cc2oc(N)c(C(N)=O)c(=O)c2cc1Oc1ccccc1
*A* > 250 °C

*Q* # return recorded melting point for entry COC(=O)C(Cc1ccccc1)NC(=O)C(CC(=O)O)NC(=O)C(N)C(C)C(=O)O (stereo not given)
*A* 172 to 175 °C

*Q* # return recorded melting point for entry CCN1CCN(C(=O)c2cc(N)cc(C(F)(F)F)c2)CC1
*A* 104 °C

*Q* # return recorded melting point for entry CCC1(C)CC(O)C2(C)CCC3c4ccc(O)cc4CCC3C12 (stereo not given)
*A* 132 to 136 °C

*Q* # return recorded melting point for entry CCCCCCCCCCCCCCCC(O)=S
*A* 64 to 66 °C

====

melting point for assorted compounds

*Q* # return recorded melting point for entry CC(C)(C(=O)O)c1ccc(OC(F)F)cc1
*A* 68.5 to 69.5 °C

*Q* # return recorded melting point for entry CCOC(=O)c1cnc2sc3c(n12)CCCC3
*A* 75 to 76 °C

*Q* # return recorded melting point for entry O=C1NC(=O)C(Cc2ccc(OCc3cn4ccccc4n3)cc2)S1 (stereo unspecified)
*A* 197 to 202 °C

*Q* # return recorded melting point for entry CCc1nc2c(N)nc3cccnc3c2n1CC1(O)CCOCC1
*A* > 250 °C

*Q* # return recorded melting point for entry COCC1(C)CC(n2ccccc2=O)c2cc(C(N)=O)ccc2O1 (stereo unspecified)
*A* 177 to 179 °C

*Q* # return recorded melting point for entry COc1ccc(C(O)c2cccc(OCc3ccc4ccccc4n3)c2)cc1 (stereo unspecified)
*A* 70 to 80 °C

====

attributeMeasured: melting point

Here's what some known entries look like.
{"columns": ["compound", "recordedResult"],
 "data": [
  ["N#CCc1ccc(NS(=O)(=O)c2ccc(N3CCNC3=O)cc2)cc1", "204 to 206 °C"],
  ["O=C(O)CCc1nc(-c2ccccc2)nc2ccccc12", "159 °C"],
  ["CC(C)C[C@H]1C(=O)NC2CCC(=O)N21 (stereo partly drawn)", "156 to 157 °C"],
  ["CNC(=S)NS(=O)(=O)c1cc(CCNC(=O)c2cc(Cl)ccc2OC)ccc1-c1ccccn1", "85 to 86 °C"]
]}

*Q* # return recorded melting point for entry CC(C)N(C)C(=O)N1N=C2c3cc(F)ccc3OC[C@@H]2[C@@H]1c1ccccc1 (racemic)
*A* 102 to 105 °C

*Q* # return recorded melting point for entry CC1CCCC(C)C1NSc1nc2ccccc2s1 (stereo not drawn)
*A* 75 to 93 °C

*Q* # return recorded melting point for entry COC(=O)C1CN(C(=O)c2cc(OC)c(OC)c(OC)c2)CCN1C(=O)C1=Cc2cc(OC)c(OC)cc2CCC1 (stereo not drawn)
*A* 134 °C

*Q* # return recorded melting point for entry CCCCc1nc(S(C)=O)c(C(=O)O)n1Cc1ccc(-c2ccccc2C(=O)O)cc1 (stereo not drawn)
*A* 208 °C

*Q* # return recorded melting point for entry CC(CNC(=O)c1cccc(Oc2ccccc2)c1)N(O)C(N)=O (stereo not drawn)
*A* 189 to 190 °C

*Q* # return recorded melting point for entry CC(C)C(C)(NC(=O)c1nc2ccc(OC(F)F)cc2cc1C(=O)O)C(N)=O (stereo not drawn)
*A* 194 to 196 °C

====

attributeMeasured: melting point

{"columns": ["compound", "melting point"],
 "data": [
  ["O=C(O)C(Oc1ccc(Cl)c(C(F)(F)F)c1)c1ccc(Cl)cc1 (stereo unspecified)", "132 °C"],
  ["CCCCOCCCNC(=O)c1cnc(C(=O)NCC(=O)OCc2ccccc2)c(OC)c1", "97 to 99 °C"],
  ["COc1cc2cnn(CCCCl)c(=O)c2cc1OC", "185 to 187 °C"],
  ["COC(=O)C1(C(N)=O)CC1", "157 °C"],
  ["CCOC(=O)c1cnc2c(SCN3CCSCC3)cccn2c1=O", "128 to 130 °C"]
]}

*Q* # return recorded melting point for entry Nc1nc(N)c2nc(N)n(COC(CO)CO)c2n1
*A* 206 to 208 °C

*Q* # return recorded melting point for entry COc1nc2cc([N+](=O)[O-])c(C)c(C(=O)N3CCCNCC3)c2nc1OC
*A* 141 to 143 °C

*Q* # return recorded melting point for entry COc1ccc(/C=C(\C#N)c2ccccc2[N+](=O)[O-])cc1OC1CCCC1
*A* 95.5 to 97 °C

*Q* # return recorded melting point for entry CC(C)(C)OC(=O)Nc1ccccc1NC(=O)c1ccc(C(=O)Nc2cccc(Nc3nc(-c4cccnc4)cs3)c2)cn1
*A* 220 to 222 °C

*Q* # return recorded melting point for entry C[Si](C)(C)OC(Cn1ccnc1)(Cn1cncn1)c1ccc(Cl)cc1Cl (stereo unspecified)
*A* 82 to 85 °C

*Q* # return recorded melting point for entry C=CCc1cc(C(=O)OC)ccc1O
*A* 78 to 82 °C

*Q* # return recorded melting point for entry NC(=O)c1cc(OCCNCC(O)COc2ccc(CCOCC3CC3)cc2)ccc1O (stereo unspecified)
*A* 149 to 150 °C

*Q* # return recorded melting point for entry CCSc1nn2c(-c3ccccc3)nnc2c2ccccc12
*A* 190 to 191 °C
